Field: MIC Nal-comb.. Provide a value for each of the substances that follow.
# System: P. aeruginosa
# Format: cell-based, Pseudomonas aeruginosa
# conditionSummary: P. aeruginosa H744; MIC of nalidixic acid with peptide at ¼ MIC
No end group written: not given here.
Give a bare numeral; the unit µg/mL is implied.

Form field: reported MIC Nal-comb. of FAKALKALLKALKAL-NH2 [P64] 624

Then what about the substance FAKKLAKKLKKLAKKLAK-NH2 [P69] ? 312

What would you report for FALALKALKKLAKKLKKLAKKAL-NH2 [P25] ? 156

Also FAKKLAKLAKKALAL-NH2 [P39, FAKKLAKLAKKALAL-NH2] ? 624

Next record, please: FAKKLAKKLKKLAKKLAKLAKKL-NH2 [P307, reference compound] 156

How about this substance: FAKKLAKKLL-NH2 [P59] 624

For FAKLLAKLAKLKL-NH2 [P66] then? 624

# iterate: GIGKFLHAAKKFAKAFVAEIMNS-NH2 [P300, reference compound] 156

Cool, now GIGKFLKKAKKFGKAFVKILKK-NH2 [P42, reference compound] 624

Try FAKKFAKKFKKFAKKFAKFAFAF-NH2 [P301, reference compound] next. 624

Please give the result for FAKKLAKKLKKLAKLALAK-NH2 [P41] too. 624

Also FAKLLAKALKKFAL-NH2 [P119, FAKLLAKALKKFAL-NH2] , if possible. 624

* * *

# Test system: collagen
# testName: Collagen stimulation, ELISA on fibroblast cell lines
# Type: cell-based
# Procedure: Fibroblast cell lines were cultured under standard conditions and assayed for collagen and laminin using an ELISA system manufactured by Panvera (Madison, Wis.). Antibodies for collagen and laminin manufactured by Takara Shuzo Co., Ltd Japan. […] The other three peptides tested neither stimulated nor inhibited production (i.e. no effect was observed).
No end group written: not given here.
recordedEndpoint: Collagen stimulation (%)
Lab book: enter the figure in %, no units written.

Collagen stimulation for FALALKALKKL-NH2 [P165] ? 0

Same thing, different substance: FALKALKKLKKALKKAL-NH2 [P153] 120

Can you handle FAKLLALALKLKL-NH2 [P94] next? 0

One more substance: MPKWKVFKKIEKVGRNIRNGIVKAGPAIAVLGEAKALG-NH2 [P12, reference compound] 0

* * *

Exercise: for every item that follows, state its recorded Inflammatory response area.
# Tested on: hairless rat skin burn wound
# testName: In vivo wound healing, TCA chemically induced skin burn wound
# conditionSummary: rat model, TCA burn treated by peptide
No end group written: not given here.

Dear colleague, I am looking for the recorded Inflammatory response area of the following substance: MPKEKVFLKIEKMGRNIRN-NH2 [P107, reference compound] 0 % of healed scar

Quick one: FAVGLRAIKRALKKLRRGVRKVAKDL-NH2 [P157, reference compound] 25 % of healed scar

What about this substance? FALKALKKLKKALKKAL-NH2 [P153] 7 % of healed scar

What would you report for FAKLLAKALKKAL-NH2 [P102, FAKLLAKALKKAL-NH2] ? 27 % of healed scar

* * *

# testName: in vitro
# conditionSummary: human, WI38 normal lung fibroblast cells, WI38 LD50, Table 41, lower part
No end group written: not given here.
recordedEndpoint: CC50 at 24 h (mg/L)
Lab book: enter the figure in mg/L, no units written.

Would you kindly share the measured CC50 at 24 h for FAKKLAKKLKKLAKKLAK-NH2 [164 (69)] ? 60

Proceed to KLAKKLAKLAKLAKAL-OH [121 (160)] 700

Record: FAKKLAKLAKKLLAL-NH2 [20 (38)] 100

Similarly, FALALKALKKAL-NH2 [106 (144)] ? 740
